test system: gum arabic; experiment: VHH binding to gum arabic in ELISA; parameters: species or system acacia tree; conditions: [VHH] 0.75 μg/ml (50 nM); gum arabic 100 μg/ml
metric_name: absorbance at 405 nm
Numbers only.

Worked examples, 3 molecules total:
INSERT INTO results (molecule, quantitative_result) VALUES
  ('VHH 5C4 (VHH, Hexahistidine-tagged) VHH: QVQLQESGGGLVQPGGSLRLSCAASGFSLRYFGIGWFRQVAGKEREPVSCSNVRDGNTYYADSVKGRFTISRDNVRNTLYLQMNSLKPEDTAVYSCATTDCEATTWGTYRGYFGQGTQVTVSS', 1.710),
  ('VHH5E5: plant-binding VHH, listed among SEQ ID NO:1-42 (protein, listed as Lama glama, 5E5) VHH: QVQLQESGGGLVQPGGSLTLSCTASGFAMRRFGIGWFRQVVGKEREGVSCSNVHDGSTYYANYVKGRFTIVRDDTKNMLYLHMNSLRAEDTGVYSCATTDCEATAWGTYRGYFGQGTQVTVSS', 0.569),
  ('VHH 7D2 (VHH, Hexahistidine-tagged) VHH: QVQLQESGGGLVQPGRSLKVACAAAGFSLRYYGIGWFRQAPGKEREAVSCTSANDGSTYYRDSVRGRFTISRDDGKNTVYLQMNRLKPEDTAVYYCATTDCDATSWGTWINYYGQGTQVTVSS', 0.906);

Check the records and state absorbance at 405 nm for VHH7C2: plant-binding VHH, listed among SEQ ID NO:1-42 (protein, listed as Lama glama, 7C2) VHH: QVQLQESGGGLVQPGGSLRLSCAAFGFALANYGIGWFRQAPGKDRERVSCDSVDDGSTHYSNSVQGRFTIIRDNAKNTVFLQMNSLKAEDTAVYYCATTDCDATTWGTWINYRGQGTQVTVSS
0.194

Hello, the source for this data is patent US20130217572A1, in case you need it.
